# ASSAY TARGET: T1, Human Clec9A (human, UniProt Q6UXN8 1-241)
# T1 construct: also called hClec9A
# T1 sequence (Q6UXN8 whole entry): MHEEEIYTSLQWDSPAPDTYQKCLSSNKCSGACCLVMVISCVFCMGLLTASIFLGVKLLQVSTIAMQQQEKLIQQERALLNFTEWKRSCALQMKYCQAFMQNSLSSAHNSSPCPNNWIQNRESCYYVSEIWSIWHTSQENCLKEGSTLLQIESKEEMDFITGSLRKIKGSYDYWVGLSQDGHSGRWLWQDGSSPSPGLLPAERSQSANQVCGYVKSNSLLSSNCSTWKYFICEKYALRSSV
# ASSAY INFO: flow, Jurkat, 100 nM Ab
PROPERTY NAME: MFI normalized to WT
Just the number, please.

Exercise: Requested field: MFI normalized to WT. Item: KW7.3.7 (antibody, V domains shown) VH: EVQLVESGGGLVQPGGSLRLSCAASGFTFSSYAMSWVRQAPGKGLEWVSATSGSGGSTYYADSAKGRFTISRDNSKNTLYLQMNSLRAEDTAVYYCARGGYLPDAFDYWGRGTLVTVSS VL: DIQMTQSPSSLSASVGDRVTITCWASQSISSYLNWYQQEPGKAPKLLIYAASSLQSGVPSRFSGSGSGTDFTLTISSLQPEDFATYYCQQTYSTPLTFGQGTKVEIK
Solution: 1.01

Hello, the source for this data is patent US20210122826A1, in case you need it.
